Data provenance is paper PMC4072508.

Biological target: T1, Mcl-1, Q07820
T1 chain: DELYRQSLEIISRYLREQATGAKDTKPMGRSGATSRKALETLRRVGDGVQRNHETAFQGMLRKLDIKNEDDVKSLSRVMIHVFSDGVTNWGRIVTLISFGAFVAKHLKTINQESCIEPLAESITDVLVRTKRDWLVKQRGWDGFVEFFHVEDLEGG
Assay: peptide SPOT array, c-Myc-tagged receptor at 1 uM or 100 nM, anti-c-Myc-Cy3
Quantity name: SPOT signal as a fraction of Bim BH3's signal on the same receptor and array

Illustrative cases are given below, each with its answer.
Binder: TRRSMVFARHLREVGDEFRSRHLNST [POFUT2]
Experimental result: 1.67

Binder: ELLYGIWSNCLGLILDSFHMFFDSTA [SLC30A7]
Experimental result: 0.06

A = DLSAVTLSREDQAMAEQLAENYHNTW [RYR1]
B = SQGKHGFTMAMNAFGDMTNEEFRQMM [CTSL2]
Of A versus B , which is the one with smaller reported SPOT signal as a fraction of Bim BH3's signal on the same receptor and array? State your choice using its label.
A
(A: 0.02, B: 0.09)
